Test system: Neobacillus 1 (Neobacillus soli)
Assay: relative growth (AUC of 72 h growth curve relative to DMSO control, dAUC) (ratio); higher = more growth (less inhibition), active = hit call of the paper
Assay context: 20 µM
Quick rule: relative growth of at least 1 means MET, below that means NOT MET.

Answered cases to consult:
1. CCCCC(C#N)(Cn1cncn1)c1ccc(Cl)cc1 (stereo unspecified) : NOT MET
2. CCCCc1c(C)nc(NCC)nc1OS(=O)(=O)N(C)C : NOT MET
3. CC[C@H]1CCC[C@H](O[C@H]2CC[C@H](N(C)C)[C@@H](C)O2)[C@@H](C)C(=O)C2=C[C@@H]3[C@@H](C=C(C)[C@@H]4C[C@@H](O[C@@H]5O[C@@H](C)[C@H](OC)[C@@H](OC)[C@H]5OC)C[C@@H]34)[C@@H]2CC(=O)O1.CC[C@H]1CCC[C@H](O[C@H]2CC[C@H](N(C)C)[C@@H](C)O2)[C@@H](C)C(=O)C2=C[C@H]3[C@@H]4C[C@H](O[C@@H]5O[C@@H](C)[C@H](OC)[C@@H](OC)[C@H]5OC)C[C@H]4C=C[C@H]3C2CC(=O)O1 : NOT MET
4. COP(=O)(OC)OC=C(Cl)Cl : NOT MET
5. CC(C)NC(=O)N1CC(=O)N(c2cc(Cl)cc(Cl)c2)C1=O : NOT MET

Problem: # check: relative growth of "CCNc1nc(Cl)nc(NC(C)C)n1" is greater than or equal to 1
Result: MET

Problem: # check: relative growth of "CCN(CC)c1nc(C)cc(OP(=S)(OC)OC)n1" is greater than or equal to 1
Result: MET

Problem: # check: relative growth of "CNC(=O)Oc1cccc(/N=C/N(C)C)c1" is greater than or equal to 1
Result: NOT MET
